assay: Static contact angle (wettability) of wax-coated surfaces, Attension Theta tensiometer; format: physicochemical; design: unit not given here; conditions: thermally-evaporated wax on Silicon substrate; liquid Cyclohexane
MEASUREMENT NAME: C.A. Cyclohexane

{"MOLECULE": "CCCCCCCCCCCCCCCCCCCCCCCCCCCCCCCCCCCCCCCCCCCC [C44, tetratetracontane]", "OBSERVED MEASUREMENT": "Fully wetted"}
{"MOLECULE": "FC(F)(F)C(F)(F)C(F)(F)C(F)(F)C(F)(F)C(F)(F)C(F)(F)C(F)(F)C(F)(F)C(F)(F)C(F)(F)C(F)(F)C(F)(F)C(F)(F)C(F)(F)C(F)(F)C(F)(F)C(F)(F)C(F)(F)C(F)(F)C(F)(F)C(F)(F)C(F)(F)C(F)(F)F [C24, perfluorotetracosane]", "OBSERVED MEASUREMENT": 112}
{"MOLECULE": "CCCCCCCCCCCCCCCCCCCCCCCCCCCCCCCCCCCCCCCCCCCCCCCCCC [C50, pentacontane]", "OBSERVED MEASUREMENT": "Fully wetted"}
{"MOLECULE": "FC(F)(F)C(F)(F)C(F)(F)C(F)(F)C(F)(F)C(F)(F)C(F)(F)C(F)(F)C(F)(F)C(F)(F)C(F)(F)C(F)(F)C(F)(F)C(F)(F)C(F)(F)C(F)(F)C(F)(F)C(F)(F)C(F)(F)C(F)(F)F [C20, perfluoroeicosane, reference compound]", "OBSERVED MEASUREMENT": "Fully wetted"}
{"MOLECULE": "CCCCCCCCCCCCCCCCCCCCCCCCCCCCCCCCCCCCCCCC [C40, tetracontane]", "OBSERVED MEASUREMENT": "Fully wetted"}
{"MOLECULE": "CCCCCCCCCCCCCCCCCCCCCCCCCCCCCCCCCCCC [C36, hexatriacontane]", "OBSERVED MEASUREMENT": "Fully wetted"}

// provenance: patent US20220340764A1
